Biological target: HER1-HER2 chimera (Homo sapiens)
Construct: HER2 cytoplasmic domain generates normal mitogenic and transforming signals in a chimeric receptor; the other entry of the earlier key: EGFR (P00533, Epidermal growth factor receptor)
Sequence (P04626 with tags, fused parts or gaps): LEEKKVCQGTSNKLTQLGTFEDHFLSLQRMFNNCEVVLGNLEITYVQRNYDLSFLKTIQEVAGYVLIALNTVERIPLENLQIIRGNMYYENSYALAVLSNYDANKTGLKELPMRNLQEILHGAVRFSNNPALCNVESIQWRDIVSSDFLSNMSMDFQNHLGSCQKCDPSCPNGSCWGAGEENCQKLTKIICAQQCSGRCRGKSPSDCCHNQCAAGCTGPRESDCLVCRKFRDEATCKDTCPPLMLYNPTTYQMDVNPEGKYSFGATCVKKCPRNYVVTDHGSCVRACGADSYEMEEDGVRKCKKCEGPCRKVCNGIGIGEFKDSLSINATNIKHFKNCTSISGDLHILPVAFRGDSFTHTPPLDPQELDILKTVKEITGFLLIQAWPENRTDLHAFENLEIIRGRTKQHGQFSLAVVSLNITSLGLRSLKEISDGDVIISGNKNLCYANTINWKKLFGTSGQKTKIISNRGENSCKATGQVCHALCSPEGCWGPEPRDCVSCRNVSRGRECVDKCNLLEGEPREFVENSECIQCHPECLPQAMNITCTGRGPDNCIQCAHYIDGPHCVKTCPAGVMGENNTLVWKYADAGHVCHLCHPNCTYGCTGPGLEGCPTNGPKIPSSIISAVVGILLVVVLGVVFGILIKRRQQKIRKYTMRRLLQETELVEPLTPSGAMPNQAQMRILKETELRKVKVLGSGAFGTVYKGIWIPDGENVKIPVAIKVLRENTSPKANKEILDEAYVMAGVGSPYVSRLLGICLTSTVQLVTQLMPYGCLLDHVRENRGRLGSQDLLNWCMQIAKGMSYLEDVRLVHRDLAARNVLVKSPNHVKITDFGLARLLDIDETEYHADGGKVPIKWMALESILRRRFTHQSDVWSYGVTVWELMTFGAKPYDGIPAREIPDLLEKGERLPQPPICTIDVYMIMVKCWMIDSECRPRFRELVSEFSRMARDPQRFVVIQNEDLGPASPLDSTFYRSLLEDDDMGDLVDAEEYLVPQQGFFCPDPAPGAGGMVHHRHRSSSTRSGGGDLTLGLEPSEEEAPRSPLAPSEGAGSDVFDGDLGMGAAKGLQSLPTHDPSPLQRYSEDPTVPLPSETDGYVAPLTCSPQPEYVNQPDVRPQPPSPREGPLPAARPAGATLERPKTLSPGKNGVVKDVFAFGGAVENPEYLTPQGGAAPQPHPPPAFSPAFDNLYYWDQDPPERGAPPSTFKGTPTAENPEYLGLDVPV
Assay: Selective-inhibition assay in CSH12 cells (receptor phosphotyrosine, Western blot)
Details: CSH12 cells expressing HER1-HER2 chimera, 1 hour incubation, EGF stimulation
measurement-type: IC50

*Q* Consider the molecule `O=C(CCl)Nc1ccc2ncnc(Nc3cc(Cl)c(Cl)cc3F)c2c1` and give its measured IC50.
*A* 25 to 50 nM

---

Target: EGFR-TK (Homo sapiens)
Construct: The supernatant, which contained the EGFR, was collected and frozen; endogenous in cells; host or cells: A431 cells (A1: Triton X-100 lysate captured on mAb108; A2: intact cells)
Sequence (P00533 25-1210): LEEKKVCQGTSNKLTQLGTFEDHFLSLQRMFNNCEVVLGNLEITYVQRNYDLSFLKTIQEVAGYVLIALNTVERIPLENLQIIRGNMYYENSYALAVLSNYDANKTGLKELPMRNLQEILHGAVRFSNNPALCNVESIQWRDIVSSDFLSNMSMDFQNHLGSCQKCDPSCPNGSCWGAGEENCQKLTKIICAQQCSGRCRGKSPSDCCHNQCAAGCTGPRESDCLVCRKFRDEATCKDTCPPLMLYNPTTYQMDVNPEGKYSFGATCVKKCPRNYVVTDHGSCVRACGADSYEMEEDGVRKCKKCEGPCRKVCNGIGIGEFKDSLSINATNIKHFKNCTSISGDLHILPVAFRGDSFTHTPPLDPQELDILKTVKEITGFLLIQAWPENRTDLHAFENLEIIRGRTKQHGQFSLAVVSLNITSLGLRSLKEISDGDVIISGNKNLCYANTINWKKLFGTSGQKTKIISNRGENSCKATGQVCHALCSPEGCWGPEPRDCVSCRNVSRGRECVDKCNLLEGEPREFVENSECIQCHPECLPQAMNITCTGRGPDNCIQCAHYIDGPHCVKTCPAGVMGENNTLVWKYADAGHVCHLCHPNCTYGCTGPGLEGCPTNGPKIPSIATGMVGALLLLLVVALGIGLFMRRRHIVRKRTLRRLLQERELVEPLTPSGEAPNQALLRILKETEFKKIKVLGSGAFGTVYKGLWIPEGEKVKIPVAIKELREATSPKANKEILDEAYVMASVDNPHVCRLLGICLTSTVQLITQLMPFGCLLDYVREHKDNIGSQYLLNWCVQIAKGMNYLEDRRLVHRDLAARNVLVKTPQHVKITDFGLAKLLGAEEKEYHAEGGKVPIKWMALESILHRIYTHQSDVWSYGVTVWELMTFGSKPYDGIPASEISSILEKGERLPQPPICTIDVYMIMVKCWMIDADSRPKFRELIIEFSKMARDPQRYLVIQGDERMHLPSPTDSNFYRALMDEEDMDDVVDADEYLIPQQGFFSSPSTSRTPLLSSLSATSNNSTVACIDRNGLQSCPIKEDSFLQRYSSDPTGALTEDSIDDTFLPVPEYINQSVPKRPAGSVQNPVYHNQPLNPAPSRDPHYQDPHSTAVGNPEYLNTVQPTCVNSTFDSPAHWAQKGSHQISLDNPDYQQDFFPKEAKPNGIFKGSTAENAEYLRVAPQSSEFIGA
Test: EGFR-TK autophosphorylation inhibition in A431 cell lysate (ELISA)
Type: biochemical
Conditions: read-out: A431 lysate IC50 app
Measured pIC50, listed per entry for reference.
The meaning of pIC50 here: minus log10 of the concentration in molar units.

{"molecule": "COCC(=O)Nc1ccc2ncnc(Nc3cc(Cl)c(Cl)cc3F)c2c1 [drawing 20]", "measured-on": "EGFR-TK (Homo sapiens)", "pIC50": 6.95}
{"molecule": "COCC(=O)Nc1ccc2ncnc(Nc3cccc(I)c3)c2c1 [drawing 18]", "measured-on": "EGFR-TK (Homo sapiens)", "pIC50": 7.19}

Then this molecule:
*Q* Consider the molecule O=C(CCl)Nc1ccc2ncnc(Nc3cc(Cl)c(Cl)cc3F)c2c1 [drawing 19] and give its measured pIC50.
*A* 8.26
